IC50 for assorted molecules
Target: full-length human BTK (Homo sapiens (Human), UniProt Q06187)
Sequence (Q06187 whole entry): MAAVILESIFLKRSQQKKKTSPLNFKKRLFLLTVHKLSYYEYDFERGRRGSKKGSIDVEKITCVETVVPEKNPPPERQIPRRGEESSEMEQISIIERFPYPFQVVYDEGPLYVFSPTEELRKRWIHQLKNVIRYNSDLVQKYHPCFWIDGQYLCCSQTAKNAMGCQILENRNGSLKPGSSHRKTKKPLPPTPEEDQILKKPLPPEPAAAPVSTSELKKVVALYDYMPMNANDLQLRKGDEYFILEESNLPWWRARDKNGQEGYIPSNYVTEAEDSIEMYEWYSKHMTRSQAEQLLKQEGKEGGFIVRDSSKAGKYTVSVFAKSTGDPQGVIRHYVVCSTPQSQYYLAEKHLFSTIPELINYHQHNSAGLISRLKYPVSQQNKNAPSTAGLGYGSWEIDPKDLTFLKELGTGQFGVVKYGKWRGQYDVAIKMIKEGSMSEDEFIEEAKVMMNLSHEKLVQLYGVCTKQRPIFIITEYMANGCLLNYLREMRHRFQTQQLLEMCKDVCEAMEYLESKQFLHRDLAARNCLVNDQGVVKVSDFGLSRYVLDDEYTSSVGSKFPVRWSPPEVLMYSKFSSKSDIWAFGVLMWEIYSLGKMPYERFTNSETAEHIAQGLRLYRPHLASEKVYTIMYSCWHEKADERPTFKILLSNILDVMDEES
Test: BTK IC50 enzyme assay (microfluidic off-chip mobility shift kinase assay)
Conditions: incubated for 90 min. at 27 C; read-out: Time Dependent BTK Enzyme Assay IC50

molecule	IC50
C=CC(=O)NCC1CCN(c2ncnc(N)c2-c2ccc(Oc3ccccc3)cc2)CC1 [A7]	> 1000 nM
C=CC(=O)Nc1cccc(Nc2ncnc(N)c2-c2ccc(Oc3ccccc3)cc2)c1 [A3]	< 100 nM
C/C=C/C(=O)NCc1cccc(-c2cnccc2Oc2ccc(Oc3ccccc3)cc2)c1 [A327]	> 1000 nM

Quote IC50 reported for C/C=C/C(=O)N1CCC(CNc2ncnc(N)c2-c2ccc(Oc3ccccc3)cc2)CC1 [A13] please.
> 1000 nM

Quote IC50 reported for C=CC(=O)N1CC2(CC(Oc3ncnc(N)c3-c3cnn(Cc4ccccc4)c3)C2)C1 [A106] please.
< 100 nM

Quote IC50 reported for C=CC(=O)Nc1cccc(Oc2ncnc(N)c2-c2cccc(S(N)(=O)=O)c2)c1 [A163] please.
> 1000 nM

Quote IC50 reported for C=CC(=O)Nc1cccc(Oc2ncnc(N)c2-c2ccc(OC(C)C)cc2)c1 [A289] please.
< 1000 nM

* * *

Target: full-length human BTK (Homo sapiens (Human))
Test: BTK IC50 enzyme assay (microfluidic off-chip mobility shift kinase assay)
Settings: incubated for 90 min. at 27 C; read-out: Time Dependent BTK Enzyme Assay IC50
observed_property: IC50

Solved entries:
compound	observed_property	result
C=CC(=O)Nc1cccc(Oc2ncnc(N)c2-c2ccc(C(=O)Nc3ccccc3)cc2)c1 [A258]	IC50	< 100 nM
C=CC(=O)NCc1cccc(-c2cnccc2Oc2ccc(Oc3ccccc3)cc2)c1 [A302]	IC50	> 1000 nM

Switching to the query record.
Quote IC50 reported for CC=CC(=O)[C@H]1CCC[C@H](Nc2ncnc(N)c2-c2ccc(Oc3ccccc3)cc2)C1 [A144] please.
< 100 nM

* * *

Target: full-length human BTK (Homo sapiens (Human))
Assay: BTK IC50 enzyme assay (microfluidic off-chip mobility shift kinase assay)
Type: biochemical
Conditions: incubated for 90 min. at 27 C; read-out: Time Dependent BTK Enzyme Assay IC50
pIC50: −log10 of the molar value.
observed_property: pIC50

Solved entries:
molecule	target_under_test	pIC50
CCC(=O)Nc1cccc(Oc2ncnc(N)c2-c2ccc(OCc3ccccc3)cc2)c1 [A346]	full-length human BTK (Homo sapiens (Human))	> 7.00
CN(C)C/C=C/C(=O)N1CCC2(CC(Nc3ncnc(N)c3-c3ccc(Oc4ccccc4)cc3)C2)C1 (stereo not drawn) [A226]	full-length human BTK (Homo sapiens (Human))	> 6.00

Quote pIC50 reported for C=CC(=O)N1CCC(COc2ncncc2-c2ccc(Oc3ccccc3)cc2)CC1 [A6] please.
> 7.00

* * *

Target: full-length human BTK (Homo sapiens (Human), UniProt Q06187)
Experiment: BTK IC50 enzyme assay (microfluidic off-chip mobility shift kinase assay)
Settings: incubated for 90 min. at 27 C; read-out: Time Dependent BTK Enzyme Assay IC50
IC50 for assorted compounds

compound	observed_property	result
CN(C)C/C=C/C(=O)N1C2CCC1CC(CNc1ncnc(N)c1-c1ccc(Oc3ccccc3)cc1)C2 (stereo not drawn)	IC50	< 1000 nM

Quote IC50 reported for CCC(=O)Nc1cccc(-c2c(Oc3ccc(Oc4ccccc4)cc3)ccnc2N)c1 please.
> 1000 nM

Quote IC50 reported for CN(C)C/C=C/C(=O)Nc1cccc(Oc2ccnc(N)c2-c2ccc(OCc3ccccc3)cc2)c1 please.
< 1000 nM

Quote IC50 reported for C=CC(=O)NC1(CNc2ncnc(N)c2-c2ccc(Oc3ccccc3)cc2)CCCC1 please.
> 1000 nM

Quote IC50 reported for C=CC(=O)N1CCC(CNc2ncnc(N)c2-c2ccc(C(=O)Nc3ccccc3)cc2)CC1 please.
> 1000 nM

Quote IC50 reported for C=CC(=O)N1CC2(CC(Oc3ncnc(N)c3-c3ccc(Oc4cccnc4)cc3)C2)C1 please.
> 1000 nM

* * *

Molecular target: full-length human BTK (Homo sapiens (Human))
Test: BTK IC50 enzyme assay (microfluidic off-chip mobility shift kinase assay)
Assay type: biochemical
Details: incubated for 90 min. at 27 C; read-out: Time Dependent BTK Enzyme Assay IC50
observed_property: IC50

given_smiles	target_under_test	observed_property	result
Nc1ccc(-c2cnccc2Oc2ccc(Oc3ccccc3)cc2)cc1	full-length human BTK (Homo sapiens (Human))	IC50	> 1000 nM

Quote IC50 reported for C=CC(=O)Nc1cccc(Oc2ncnc(N)c2-c2cnn(Cc3cccc(F)c3)c2)c1 please.
< 100 nM

Quote IC50 reported for Nc1cccc(-c2c(N)ncnc2Oc2ccc(Oc3ccccc3)cc2)c1 please.
> 1000 nM

* * *

Target: full-length human BTK (Homo sapiens (Human), UniProt Q06187)
Assay: BTK IC50 enzyme assay (microfluidic off-chip mobility shift kinase assay)
Conditions: incubated for 90 min. at 27 C; read-out: Time Dependent BTK Enzyme Assay IC50
pIC50: −log10 of the molar value.
pIC50 for assorted compounds

compound	pIC50
C=CC(=O)N1C2CCC1CC(CNc1ncnc(N)c1-c1ccc(Oc3ccccc3)cc1)C2 (centres unmarked) [A48]	> 7.00
C=CC(=O)N1CC[C@@H](O)[C@H](Nc2ncnc(N)c2-c2ccc(Oc3ccccc3)cc2)C1 (racemic) [A210]	> 6.00
C=CC(=O)N1CCC(CNc2nc(C)nc(N)c2-c2ccc(Oc3ccccc3)cc2)CC1 [A36]	< 6.00
C=CC(=O)N1CCC(CNc2ncnc(N)c2-c2ccc(C(=O)Nc3ccccc3)cc2)C1 (centres unmarked) [A155]	< 6.00
CCC(=O)Nc1ccc(Oc2ncnc(N)c2-c2ccc(Oc3ccccc3)cc2)cc1 [A308]	< 6.00
C=CC(=O)N1CC(CCNc2ncnc(N)c2-c2ccc(Oc3ccccc3)cc2)C1 [A103]	> 6.00
C=CC(=O)NC12CCC(Nc3ncnc(N)c3-c3ccc(Oc4ccccc4)cc3)(C1)C2 [A177]	> 7.00
C=CC(=O)N1CCC(CCNc2ncnc(N)c2-c2ccc(Oc3ccccc3)cc2)CC1 [A16]	< 6.00

Quote pIC50 reported for CN(C)C/C=C/C(=O)N1CCC(F)(CNc2ncnc(N)c2-c2ccc(Oc3ccccc3)cc2)CC1 [A227] please.
> 7.00

Quote pIC50 reported for C=CC(=O)N1CCC(CNc2ncnc(N)c2-c2ccc(OC)c(OC)c2)CC1 [A82] please.
< 6.00

Quote pIC50 reported for CCC(=O)Nc1cccc(Oc2ncnc(N)c2-c2ccc(Oc3ccccc3)cc2)c1 [A326] please.
< 6.00

* * *

IC50 for assorted compounds
Target: full-length human BTK (Homo sapiens (Human), UniProt Q06187)
Test: BTK IC50 enzyme assay (microfluidic off-chip mobility shift kinase assay)
Conditions: incubated for 90 min. at 27 C; read-out: Time Dependent BTK Enzyme Assay IC50

Solved entries:
compound	IC50
Nc1ncnc(Oc2cccc(NC(=O)CCl)c2)c1-c1ccc(Oc2ccccc2)cc1	< 100 nM
C=CC(=O)N[C@H]1C[C@H](O)C[C@@H](Nc2ncnc(N)c2-c2ccc(Oc3ccccc3)cc2)C1 (racemic)	< 1000 nM
CN(C)C/C=C/C(=O)N1CC2(CC(Oc3ncnc(N)c3-c3ccc(Oc4ccccc4)cc3)C2)C1	< 100 nM
C=CC(=O)N1C[C@@H](F)C[C@H](Nc2ncnc(N)c2-c2ccc(Oc3ccccc3)cc2)C1	< 100 nM
C=CC(=O)NC1CC2(C1)CC(Nc1ncnc(N)c1-c1ccc(Oc3ccccc3)cc1)C2 (stereo not shown)	> 1000 nM
C=CC(=O)N1CCC(CNc2ncnc(N)c2-c2ccc(Oc3cccnc3)cc2)CC1	< 1000 nM
C=CC(=O)Nc1cccc(Oc2ncnc(N)c2-c2cnc(OCc3ccccc3)nc2)c1	< 100 nM
C=CC(=O)Nc1cccc(Oc2nc(N)ncc2-c2ccc(Oc3ccccc3)cc2)c1	< 100 nM

Quote IC50 reported for C=CC(=O)N1CC[C@@H](CNc2ncnc(N)c2-c2ccc(Oc3cccc(C(F)(F)F)c3)cc2)[C@H](O)C1 please.
< 100 nM

Quote IC50 reported for C=CC(=O)N1CCC(CNc2ncnc(N)c2-c2ccc(Oc3ccccc3)cc2)(C(=O)O)CC1 please.
< 100 nM

Quote IC50 reported for C#CC(=O)N1C2CCC1CC(CNc1ncnc(N)c1-c1ccc(Oc3ccccc3)cc1)C2 (stereo not shown) please.
< 100 nM

Quote IC50 reported for C=CC(=O)N1CC2(CC(Nc3ncnc(N)c3-c3ccc(Oc4ccc(C#N)cc4)cc3)C2)C1 please.
< 1000 nM

Quote IC50 reported for C=CC(=O)N1CCC[C@@H](Nc2ncnc(N)c2-c2cnn(Cc3ccccc3)c2)C1 please.
< 1000 nM

* * *

Molecular target: full-length human BTK (Homo sapiens (Human), UniProt Q06187)
Assay: BTK IC50 enzyme assay (microfluidic off-chip mobility shift kinase assay)
Conditions: incubated for 90 min. at 27 C; read-out: Time Dependent BTK Enzyme Assay IC50
pIC50: −log10 of the molar value.
observed_property: pIC50

given_smiles	pIC50
CC#CC(=O)c1cccc(CNc2ncnc(N)c2-c2ccc(Oc3ccccc3)cc2)c1	> 6.00
Nc1ncnc(Oc2cccc(NC(=O)CCl)c2)c1-c1ccc(OCc2ccccc2)cc1	> 7.00
Nc1ncnc(NCC2CCN(C(=O)/C=C/CN3CCCC3)CC2)c1-c1ccc(Oc2ccccc2)cc1	> 6.00

Quote pIC50 reported for C=CC(=O)N1CCC2(CCN(c3ncnc(N)c3-c3ccc(Oc4ccccc4)cc3)CC2)C1 please.
> 6.00

Quote pIC50 reported for Nc1ncnc(OC2CC3(C2)CN(C(=O)/C=C/CN2CC(F)(F)C2)C3)c1-c1ccc(Oc2ccccc2)cc1 please.
> 6.00

Quote pIC50 reported for C=CC(=O)Nc1cccc(Oc2ncnc(N)c2-c2cnn(Cc3ccccc3)c2)c1 please.
> 7.00
